- Target of assay: T1, mFGFR4-Histag (murine, UniProt Q03142 19-362)
- T1 construct: also called murine protein mFGFR4; murine FGF-R4
- T1 sequence (Q03142 other isoform, or with tags, fused parts or gaps): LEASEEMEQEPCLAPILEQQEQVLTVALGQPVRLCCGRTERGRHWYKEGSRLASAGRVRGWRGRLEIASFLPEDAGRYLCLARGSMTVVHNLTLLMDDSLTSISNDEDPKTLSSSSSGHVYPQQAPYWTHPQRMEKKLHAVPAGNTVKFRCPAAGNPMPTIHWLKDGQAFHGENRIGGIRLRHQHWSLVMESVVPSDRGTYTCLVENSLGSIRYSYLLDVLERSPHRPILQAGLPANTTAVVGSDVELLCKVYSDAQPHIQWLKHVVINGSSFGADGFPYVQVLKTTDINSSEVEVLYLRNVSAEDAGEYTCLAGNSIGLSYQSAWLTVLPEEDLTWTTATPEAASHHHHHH
- Assay text: SPR (BIAcore 3000)
Each entry below carries its recorded Kd.
Write the value in nM as a bare number.

{"columns": ["Binder", "Unit name", "Kd"],
 "data": [
  ["anti-FGFR4 antibody clone 31 (human IgG1 format) (antibody, V domains shown, As for clone 8: human IgG1 format from HEK293; also called antibody 31) VH: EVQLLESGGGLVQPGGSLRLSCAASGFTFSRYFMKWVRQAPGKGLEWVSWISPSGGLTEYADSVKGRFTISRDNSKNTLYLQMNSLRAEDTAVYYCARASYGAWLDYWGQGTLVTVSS VL: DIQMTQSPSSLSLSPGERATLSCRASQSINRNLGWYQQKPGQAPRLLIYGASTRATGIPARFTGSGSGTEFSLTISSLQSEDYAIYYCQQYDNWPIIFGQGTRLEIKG", "nM", 1.97]
]}

Name the recorded Kd of the item anti-FGFR4 antibody clone 33 (human IgG1 format) (antibody, V domains shown, As for clone 8: human IgG1 format from HEK293; also called antibody 33) VH: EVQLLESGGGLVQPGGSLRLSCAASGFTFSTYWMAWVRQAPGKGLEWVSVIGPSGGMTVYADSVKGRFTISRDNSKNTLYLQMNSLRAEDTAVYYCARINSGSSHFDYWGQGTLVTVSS VL: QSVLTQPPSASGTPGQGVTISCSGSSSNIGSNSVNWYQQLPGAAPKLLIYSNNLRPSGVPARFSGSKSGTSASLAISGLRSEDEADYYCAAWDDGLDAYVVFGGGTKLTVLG in your answer.
0.692

Supply reported Kd belonging to this binder: anti-FGFR4 antibody clone 36 (human IgG1 format) (antibody, V domains shown, As for clone 8: human IgG1 format from HEK293; also called antibody 36) VH: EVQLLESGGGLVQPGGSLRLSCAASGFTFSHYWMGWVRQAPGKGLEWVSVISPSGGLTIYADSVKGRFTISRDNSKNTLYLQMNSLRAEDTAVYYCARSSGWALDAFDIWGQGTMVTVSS VL: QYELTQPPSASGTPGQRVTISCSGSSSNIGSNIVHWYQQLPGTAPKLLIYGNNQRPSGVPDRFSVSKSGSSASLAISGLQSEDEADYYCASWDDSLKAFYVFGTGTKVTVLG
2.28

Tell us which Kd value is on record for anti-FGFR4 antibody clone 8 (human IgG1 format) (antibody, V domains shown, also called antibody 8) VH: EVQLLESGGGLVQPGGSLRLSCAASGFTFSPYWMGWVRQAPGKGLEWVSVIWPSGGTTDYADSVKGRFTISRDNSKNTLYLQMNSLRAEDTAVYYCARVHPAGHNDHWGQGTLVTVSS VL: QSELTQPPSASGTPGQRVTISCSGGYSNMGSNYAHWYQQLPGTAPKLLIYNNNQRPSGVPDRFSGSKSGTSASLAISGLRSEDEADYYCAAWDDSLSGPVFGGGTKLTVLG
0.115
